# System: Aeromonas hydrophila
# assay procedure: MIC against Gram-negative bacteria: Aeromonas hydrophila
# Assay type: cell-based
# test context: 96-well plate, 5×10^5 CFU/mL, 37° C., 10 h
Examples of substances with documented MIC against A. hydrophila follow.
The answer is to be given in µg/mL; state only the numeric part.

A selection of reference data follows.
Inquiry: Sample PRT584 (CQCSHEGALSSLCEKTSGQCLCRTGAFGLRCDRCQRGQWGFPSCRP; listed as Homo sapiens) — what was its MIC against A. hydrophila?
Reply text: 50

Inquiry: Sample PRT463 (DVNECLQLPKACAYQCHNLQGSYRCLCPPGQTLLRDGKACT; listed as Homo sapiens) — what was its MIC against A. hydrophila?
Reply text: 12.5

Inquiry: Sample PRT462 (DVDECLEGLDDCHYNQLCENTPGGHRCSCPRGYRMQGPS; listed as Homo sapiens) — what was its MIC against A. hydrophila?
Reply text: 12.5

***
Inquiry: Sample PRT528 (CSCNSNGQLGSCHPLTGDCINQEPKDSSPAEECDD; listed as Homo sapiens) — what was its MIC against A. hydrophila?
Reply text: 25

====

Examples of substances with documented MIC (μg/mL) A. hydrophila follow.
# System: Aeromonas hydrophila
# assay procedure: MIC against Gram-negative bacteria: Aeromonas hydrophila
# Assay type: cell-based
# test context: Aeromonas hydrophila; 96-well plate, 5×10^5 CFU/mL, 37° C., 10 h
The answer is to be given in µg/mL; state only the numeric part.

A selection of reference data follows.
Inquiry: Hello, I am looking for reported MIC (μg/mL) A. hydrophila with Aeromonas hydrophila for PRT111 (DLDECASRSKSGEEDPQPQCQHLCHNYVGGYFCSCRPGYELQEDTHSCQ; listed as Homo sapiens) . Could you help?
Reply text: 25

Inquiry: Hello, I am looking for reported MIC (μg/mL) A. hydrophila with Aeromonas hydrophila for PRT76 (EVDLCYSRPCGPHGRCRSREGGYTCLCRDGYTGEHCE; listed as Homo sapiens) . Could you help?
Reply text: 12.5

Inquiry: Hello, I am looking for reported MIC (μg/mL) A. hydrophila with Aeromonas hydrophila for PRT68 (RSGRCANGVCKNGGTCVNLLIGGFHCVCPPGEYERPYCE; listed as Homo sapiens) . Could you help?
Reply text: 12.5

***
Inquiry: Hello, I am looking for reported MIC (μg/mL) A. hydrophila with Aeromonas hydrophila for PRT84 (EAGRCVPGVCRNGGTCTDAPNGGFRCQCPAGGAFEGPRCE; listed as Homo sapiens) . Could you help?
Reply text: 25

Inquiry: Hello, I am looking for reported MIC (μg/mL) A. hydrophila with Aeromonas hydrophila for PRT94 (DVNECNAHPCFPRVRCINTSPGFRCEACPPGYSGPTHQGVGLAFAKANKQVCT; listed as Homo sapiens) . Could you help?
Reply text: 12.5

Inquiry: Hello, I am looking for reported MIC (μg/mL) A. hydrophila with Aeromonas hydrophila for PRT122 (CAPCQGNGVPVLKGSRCDCICPVGSQGLACE; listed as Homo sapiens) . Could you help?
Reply text: 12.5

Inquiry: Hello, I am looking for reported MIC (μg/mL) A. hydrophila with Aeromonas hydrophila for PRT36 (PVRDCSKDNGGCSKNFRCISDRKLDSTGCVCPSGLSPMKDSSGCY; listed as Homo sapiens) . Could you help?
Reply text: 25

Inquiry: Hello, I am looking for reported MIC (μg/mL) A. hydrophila with Aeromonas hydrophila for PRT131 (AGHCSTYGHLCRNGGRCREKRRGVTCDCAFSAYDGPFCS; listed as Homo sapiens) . Could you help?
Reply text: 12.5

Inquiry: Hello, I am looking for reported MIC (μg/mL) A. hydrophila with Aeromonas hydrophila for PRT24 (ELDLCYSNPCRNGGACARREGGYTCVCRPRFTGEDCE; listed as Homo sapiens) . Could you help?
Reply text: 12.5

Inquiry: Hello, I am looking for reported MIC (μg/mL) A. hydrophila with Aeromonas hydrophila for PRT91 (DTNECIQFPFVCPRDKPVCVNTYGSYRCRTNKKCSRGYEPNEDGTAC; listed as Homo sapiens) . Could you help?
Reply text: 25

====

# Test system: Pseudomonas aeruginosa
# assay procedure: MIC against Gram-negative bacteria: Pseudomonas aeruginosa
# Type: cell-based
# test context: Pseudomonas aeruginosa; 96-well plate, 5×10^5 CFU/mL, 37° C., 10 h
measure name: MIC (μg/mL) P. aeruginosa (µg/mL)
The answer is to be given in µg/mL; state only the numeric part.

Inquiry: Hello, I am looking for reported MIC (μg/mL) P. aeruginosa with Pseudomonas aeruginosa for PRT16 (EKSPCQPNPCHGAAPCRVLPEGGAQCECPLGREGTFCQ; listed as Homo sapiens) . Could you help?
Reply text: 25

Inquiry: Hello, I am looking for reported MIC (μg/mL) P. aeruginosa with Pseudomonas aeruginosa for PRT47 (CTCSGHANICHLHTGKCFCTTKGIKGDQCQLCDSENRYVGNPLRGTCYY; listed as Homo sapiens) . Could you help?
Reply text: 12.5

Inquiry: Hello, I am looking for reported MIC (μg/mL) P. aeruginosa with Pseudomonas aeruginosa for PRT63 (GCNFNNGGCHQDCFEGGDGSFLCGCRPGFRLLDDLVTCA; listed as Homo sapiens) . Could you help?
Reply text: 12.5

Now, please, on to the next substance.
Inquiry: Hello, I am looking for reported MIC (μg/mL) P. aeruginosa with Pseudomonas aeruginosa for PRT118 (DVDECVGPGGPLCDSLCFNTQGSFHCGCLPGWVLAPNGVSCT; listed as Homo sapiens) . Could you help?
Reply text: 12.5

====

Examples of substances with documented MIC against P. aeruginosa follow.
# Tested on: Pseudomonas aeruginosa
# assay procedure: MIC against Gram-negative bacteria: Pseudomonas aeruginosa
# Assay type: cell-based
# test context: Pseudomonas aeruginosa; 5×10^5 CFU/mL; 10 h cultivation at 37° C.
Output should be the measured figure followed by the unit it is expressed in.

Inquiry: Sample PRT1362 (GKPTCPHACHTQGRCEEGQCVCDEGFAGVDCS; listed as Homo sapiens) — what was its MIC against P. aeruginosa?
Reply text: 50 µg/mL

Inquiry: Sample PRT1364 (GELKCPNGCSGHGRCVNGQCVCDEGYTGEDCS; listed as Homo sapiens) — what was its MIC against P. aeruginosa?
Reply text: 25 µg/mL

***
Inquiry: Sample PRT1386 (GSRACPRDCRGRGRCENGVCVCNAGYSGEDC; listed as Homo sapiens) — what was its MIC against P. aeruginosa?
Reply text: 25 µg/mL

Inquiry: Sample PRT1438 (PVKSCSEPRCFNGGTCQQALYFSDFVCQCPEGFAGKCCE; listed as Homo sapiens) — what was its MIC against P. aeruginosa?
Reply text: 50 µg/mL

====

# Test system: Citrobacter diversus
# assay procedure: MIC against Gram-negative bacteria: Citrobacter diversus
# Format: cell-based
# test context: C. diversus; 10 h cultivation at 37° C.; 5×10^5 CFU/mL
Examples of substances with documented MIC (μg/mL) C. diversus follow.
The answer is to be given in µg/mL; state only the numeric part.

Inquiry: Sample PRT205 (SAHVCSQQCSGHGVCDSRNKCHCSPGYKPPNCQ; listed as Homo sapiens) — what was its MIC (μg/mL) C. diversus?
Reply text: 12.5

Inquiry: Sample PRT794 (SSRCGCKNDAVCSPVDGSCTCKAGWHGVDCS; listed as Homo sapiens) — what was its MIC (μg/mL) C. diversus?
Reply text: 25

Inquiry: Sample PRT171 (CDPSPCKNGGSCTDLENSYSCTCPPGFYGKIC; listed as Homo sapiens) — what was its MIC (μg/mL) C. diversus?
Reply text: 25

***
Inquiry: Sample PRT182 (QQPICLSGCHEQNGYCSKPAECLCRPGWQGRLCN; listed as Homo sapiens) — what was its MIC (μg/mL) C. diversus?
Reply text: 25

====

# Test system: Proteus mirabilis
# assay procedure: MIC against Gram-negative bacteria: Proteus mirabilis
# Assay type: cell-based
# test context: 96-well plate, 5×10^5 CFU/mL, 37° C., 10 h
measure name: MIC P. mirabilis (µg/mL)
The answer is to be given in µg/mL; state only the numeric part.

A selection of reference data follows.
Inquiry: Sample PRT713 (GTNVCARDNGGCKQLCLYRGNSRRTCACAHGYLAEDGVTCL; listed as Homo sapiens) — what was its MIC P. mirabilis?
Reply text: 50

Inquiry: Sample PRT634 (DIDECQHRHLCAHGQCRNTEGSFQCVCDQGYRASGLGDHCE; listed as Homo sapiens) — what was its MIC P. mirabilis?
Reply text: 25

Inquiry: Sample PRT698 (DVDECARSPPPCTYGRCENTEGSFQCVCPMGFQPNTAGSECE; listed as Homo sapiens) — what was its MIC P. mirabilis?
Reply text: 25

Inquiry: Sample PRT647 (DVDECLRPDVCGEGHCVNTVGAFRCEYCDSGYRMTQRGRCE; listed as Homo sapiens) — what was its MIC P. mirabilis?
Reply text: 12.5

Inquiry: Sample PRT664 (DINECLTLGLCKDAECVNTRGSYLCTCRPGLMLDPSRSRCV; listed as Homo sapiens) — what was its MIC P. mirabilis?
Reply text: 50

Inquiry: Sample PRT632 (CKCHPLGSQEDQCHPKTGQCTCRPGVTGQACDRCQLGFFGFSIKGCRA; listed as Homo sapiens) — what was its MIC P. mirabilis?
Reply text: 12.5

***
Inquiry: Sample PRT734 (NNNPCLENNGGCSHLCFALPGLHTPKCDCAFGTLQSDGKNCA; listed as Homo sapiens) — what was its MIC P. mirabilis?
Reply text: 25

Inquiry: Sample PRT638 (DVNECELLSGVCGEAFCENVEGSFLCVCADENQEYSPMTGQCR; listed as Homo sapiens) — what was its MIC P. mirabilis?
Reply text: 50

Inquiry: Sample PRT684 (APVLCPLICHNGGVCVKPDRCLCPPDFAGKFCQ; listed as Homo sapiens) — what was its MIC P. mirabilis?
Reply text: 25

Inquiry: Sample PRT599 (CECDPDGTISGGICVSHSDPALGSVAGQCLCKENVEGAKCDQCKPNHYGLSATDPLGCQP; listed as Homo sapiens) — what was its MIC P. mirabilis?
Reply text: 50

Inquiry: Sample PRT671 (RVVVCPLPCMNGGQCSSRNQCLCPPDFTGRFCQ; listed as Homo sapiens) — what was its MIC P. mirabilis?
Reply text: 12.5
